The following molecules are shown together with reported max response values.
System: NIH3T3
Assay: Cytotoxic Profiling of Annotated Libraries Using Quantitative High-Throughput Screening (AID 1296008); further: nearly all actives have a fitted effect of over 60% in size; on max response: on the % scale 0 is the no-effect control and ±100 the full control effect
Conditions: Five cell lines viability, CellTiter-Glo ATP luminescence, 48-72 h; active compounds read low
Protocol: Cell-based phenotypic screening is a commonly used approach to discover biological pathways, novel drug targets, chemical probes and high-quality hit-to-lead molecules. […] A pintool (Kalypsys) was used to transfer 23 nL of compound solution to the 1536-well assay plates. […] Plates were left at room temperature for 10 min before imaging the ATP-coupled luminescence using a ViewLux microplate imager (PerkinElmer, Waltham, MA).
Records with an inconclusive call do not appear.
outcome measure: max response (%)

Clc1cc2c(NC3CCCC3)nnc(-c3ccncc3)c2cc1Cl :: -2.41
O=C1CC2(CCCC2)[C@H](O)C(=O)N1CCCCN1CCN(c2ncccn2)CC1 :: -13.6
CC1(O)CCCC2(C)C1CCC13CC(CO)C(CCC12)C3 (stereo not given) :: -0.27
CC(=O)O[C@@H]1c2c(C)coc2C(=O)[C@@]23O[C@@H]2CC[C@H](C)[C@@]13C :: 4.3
CC(C)C(CO)Nc1nc(Nc2ccc(C(=O)O)c(Cl)c2)c2ncn(C(C)C)c2n1 (stereo not given) :: -3.63

====

Test system: KB-3-1
Assay: Cytotoxic Profiling of Annotated Libraries Using Quantitative High-Throughput Screening (AID 1296008); further: nearly all actives have a fitted effect of over 60% in size
Conditions: Five cell lines viability, CellTiter-Glo ATP luminescence, 48-72 h
Procedure: Cell-based phenotypic screening is a commonly used approach to discover biological pathways, novel drug targets, chemical probes and high-quality hit-to-lead molecules. […] A pintool (Kalypsys) was used to transfer 23 nL of compound solution to the 1536-well assay plates. […] Plates were left at room temperature for 10 min before imaging the ATP-coupled luminescence using a ViewLux microplate imager (PerkinElmer, Waltham, MA).
Inconclusive results are not listed. Active and inactive are the calls of the source. Calls come from the whole dose curve; as a rule, active = well fitted inhibition curve with a large enough effect; inconclusive = small, poorly fitted or top-dose-only effect; inactive = flat fitted curve, though single readings scatter.
Labels: true (1) (active), false (0) (inactive)

CN(C)c1ccc2c(c1)OC(N)=C(C#N)C2c1cccc(C(F)(F)F)c1 (centres undefined) :: true (1)
Cc1nc([C@](C)(O)CO)sc1-c1cnc(N)c(O[C@H](C)c2cc(F)ccc2-n2nccn2)c1 :: true (1)
CC[C@@H](O)C[C@@H]1C(C)=C[C@@H]2CCCC[C@@H]2[C@@]1(C)C(=O)O :: false (0)
c1cc(Nc2cc(C3CC3)[nH]n2)nc(Nc2ccc3nc[nH]c3c2)n1 :: true (1)

====

target: Glutathione peroxidase 1 (Homo sapiens) (UniProt P07203); assay: Primary qHTS Assay for Inhibitors of Recombinant Selenoprotein Glutathione Peroxidase 1 (GPX1) (AID 1845191); conditions: recombinant GPX1, GR-coupled NADPH fluorescence, 15 min; series mostly up to 48.8 µM; further: nearly all actives have a fitted effect of over 65% in size; on activity, negative = inhibition: on the % scale 0 is the no-effect control and ±100 the full control effect
Sequence (P07203 whole entry, looked up): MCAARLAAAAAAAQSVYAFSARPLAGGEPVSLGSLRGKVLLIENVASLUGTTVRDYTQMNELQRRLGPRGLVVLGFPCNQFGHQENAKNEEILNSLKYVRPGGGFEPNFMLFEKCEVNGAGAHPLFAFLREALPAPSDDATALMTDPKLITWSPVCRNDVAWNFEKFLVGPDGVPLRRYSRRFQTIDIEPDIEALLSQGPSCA
Inconclusive results are not listed. Calls of active or inactive are those of the source. The call rests on the fitted dose curve; in most records, active means well fitted inhibition curve with a large enough effect; inconclusive means small, poorly fitted or top-dose-only effect; inactive means flat fitted curve, though single readings scatter.
outcome measure: activity, negative = inhibition

COC(=O)C1=CO[C@@H](O[C@@H]2O[C@H](CO[C@@H]3O[C@H](COC(=O)/C=C/c4cc(OC)c(O)c(OC)c4)[C@@H](O)[C@H](O)[C@H]3O)[C@@H](O)[C@H](O)[C@H]2O)[C@@H]2C(CO)=CC[C@H]12 :: inactive
O=C1CC2(CCCC2)[C@H](O)C(=O)N1CCCCN1CCN(c2ncccn2)CC1 :: inactive
COc1cc([C@H]2c3cc(O)c(OC)cc3C[C@@H](CO[C@@H]3O[C@H](CO)[C@@H](O)[C@H](O)[C@H]3O)[C@@H]2CO)ccc1O :: inactive
COC(=O)CC1CC(c2ccc(O)cc2)=NO1 (configuration not stated) :: inactive
CC1(C)CCC(C)(C)c2cc(C3(c4ccc(C(=O)O)cc4)OCCO3)ccc21 :: inactive
C=CC1(C)C=C2C(=O)OC(=O)C3=C(CCCC3(C)C)C2(O)CC1 (configuration not stated) :: inactive
C[C@@H]1O[C@@H](OC[C@H]2O[C@@H](OC(CCCCc3ccc(O)cc3)CCc3ccc(O)cc3)[C@H](O)[C@@H](O)[C@@H]2O)[C@H](O)[C@H](O)[C@H]1O (some centres not stated) :: inactive
